system: MCF10A; assay: MTT cell proliferation assay, MCF10A; assay type: cell-based; conditions: Homo sapiens, MCF-10A, single agents, 72 hours, read-out: IC50, growth
pIC50: −log10 of the molar value.
Measured endpoint: pIC50

>>> endpoint_value("C[C@]1(c2nc3c(C(N)=O)cccc3[nH]2)CCCN1")
"~5.00"

Origin of measurements: patent US9623008B2
